meta.source: ChEMBL document CHEMBL6109103

- Test system: Acinetobacter baumannii
- MEASUREMENT_NOTES: Antibacterial activity against Acinetobacter baumannii ATCC 19606 assessed as inhibition of bacterial growth incubated for 24 hrs by broth dilution assay
- Format: functional
READOUT_NAME: MIC

1. H-LLGDFFRKSKEKIGKEF-OH = > 320 µg/mL
2. H-KRIVQRIKDFLR-OH = > 320 µg/mL
3. H-NLVPRTES-OH = > 320 µg/mL
